# credit: paper PMC3849266

experiment: Biodistribution and in vivo binding specificity in PC-3 tumor-bearing BALB/c nu/nu mice; settings: male, BALB/c nu/nu, mouse, spleen, iv, 45 pmol, total radioactivity, male BALB/c nu/nu mice with PC-3 xenografts, 45 pmol i.v., 1 h p.i.; read-out: Spleen uptake
recorded metric: tissue uptake at 1 h (%ID/g)
Report the figure in %ID/g without appending any unit label.

Q: Which tissue uptake at 1 h is listed for CC(C)C[C@H](NC(=O)C[C@H](O)[C@H](CC(C)C)NC(=O)[C@H](Cc1c[nH]cn1)NC(=O)CNC(=O)[C@@H](NC(=O)[C@H](C)NC(=O)[C@H](Cc1c[nH]c2ccccc12)NC(=O)[C@H](CCC(N)=O)NC(=O)[C@@H](Cc1ccccc1)NC(=O)COCCOCCNC(=O)CN1CCN(CC(=O)O)CCN(CC(=O)O)CC1)C(C)C)C(N)=O [[^18F]AlF-NOTA-P2-RM26] ?
Ans: 1

---

assay: Biodistribution and in vivo binding specificity in PC-3 tumor-bearing BALB/c nu/nu mice; details: male, BALB/c nu/nu, mouse, muscle, iv, 45 pmol, total radioactivity, male BALB/c nu/nu mice with PC-3 xenografts, 45 pmol i.v., 1 h p.i.; read-out: Muscle uptake
recorded metric: tissue uptake at 1 h

Q: Look at this molecule and give its reported tissue uptake at 1 h. CC(C)C[C@H](NC(=O)C[C@H](O)[C@H](CC(C)C)NC(=O)[C@H](Cc1c[nH]cn1)NC(=O)CNC(=O)[C@@H](NC(=O)[C@H](C)NC(=O)[C@H](Cc1c[nH]c2ccccc12)NC(=O)[C@H](CCC(N)=O)NC(=O)[C@@H](Cc1ccccc1)NC(=O)COCCOCCNC(=O)CN1CCN(CC(=O)O)CCN(CC(=O)O)CC1)C(C)C)C(N)=O [[^18F]AlF-NOTA-P2-RM26]
Ans: 0.1 %ID/g

---

assay: Biodistribution and in vivo binding specificity in PC-3 tumor-bearing BALB/c nu/nu mice; settings: mouse, carcass (whole sample), iv, total radioactivity; male BALB/c nu/nu mice with PC-3 xenografts, 45 pmol i.v., 1 h p.i.; read-out: Carcass uptake
recorded metric: tissue uptake dose at 1 h (%ID)
Write it as a number; the unit %ID goes unstated.

Q: Look up tissue uptake dose at 1 h: CC(C)C[C@H](NC(=O)C[C@H](O)[C@H](CC(C)C)NC(=O)[C@H](Cc1c[nH]cn1)NC(=O)CNC(=O)[C@@H](NC(=O)[C@H](C)NC(=O)[C@H](Cc1c[nH]c2ccccc12)NC(=O)[C@H](CCC(N)=O)NC(=O)[C@@H](Cc1ccccc1)NC(=O)COCCOCCNC(=O)CN1CCN(CC(=O)O)CCN(CC(=O)O)CC1)C(C)C)C(N)=O [[^18F]AlF-NOTA-P2-RM26]
Ans: 6

---

test: Biodistribution and in vivo binding specificity in PC-3 tumor-bearing BALB/c nu/nu mice; conditions: mouse, carcass (whole sample), iv, total radioactivity; male BALB/c nu/nu mice with PC-3 xenografts, 45 pmol i.v., 6 h p.i.; read-out: Carcass uptake
recorded metric: tissue uptake dose at 6 h (%ID)
Express the result in %ID but write the number alone.

Q: GET /values?readout=tissue uptake dose at 6 h&item= CC(C)C[C@H](NC(=O)C[C@H](O)[C@H](CC(C)C)NC(=O)[C@H](Cc1c[nH]cn1)NC(=O)CNC(=O)[C@@H](NC(=O)[C@H](C)NC(=O)[C@H](Cc1c[nH]c2ccccc12)NC(=O)[C@H](CCC(N)=O)NC(=O)[C@@H](Cc1ccccc1)NC(=O)COCCOCCNC(=O)CN1CCN(CC(=O)O)CCN(CC(=O)O)CC1)C(C)C)C(N)=O [[^18F]AlF-NOTA-P2-RM26]
Ans: 0.8
